testTarget: P‐glycoprotein (P‐gp) (Homo sapiens)
Sequence (P08183 whole entry): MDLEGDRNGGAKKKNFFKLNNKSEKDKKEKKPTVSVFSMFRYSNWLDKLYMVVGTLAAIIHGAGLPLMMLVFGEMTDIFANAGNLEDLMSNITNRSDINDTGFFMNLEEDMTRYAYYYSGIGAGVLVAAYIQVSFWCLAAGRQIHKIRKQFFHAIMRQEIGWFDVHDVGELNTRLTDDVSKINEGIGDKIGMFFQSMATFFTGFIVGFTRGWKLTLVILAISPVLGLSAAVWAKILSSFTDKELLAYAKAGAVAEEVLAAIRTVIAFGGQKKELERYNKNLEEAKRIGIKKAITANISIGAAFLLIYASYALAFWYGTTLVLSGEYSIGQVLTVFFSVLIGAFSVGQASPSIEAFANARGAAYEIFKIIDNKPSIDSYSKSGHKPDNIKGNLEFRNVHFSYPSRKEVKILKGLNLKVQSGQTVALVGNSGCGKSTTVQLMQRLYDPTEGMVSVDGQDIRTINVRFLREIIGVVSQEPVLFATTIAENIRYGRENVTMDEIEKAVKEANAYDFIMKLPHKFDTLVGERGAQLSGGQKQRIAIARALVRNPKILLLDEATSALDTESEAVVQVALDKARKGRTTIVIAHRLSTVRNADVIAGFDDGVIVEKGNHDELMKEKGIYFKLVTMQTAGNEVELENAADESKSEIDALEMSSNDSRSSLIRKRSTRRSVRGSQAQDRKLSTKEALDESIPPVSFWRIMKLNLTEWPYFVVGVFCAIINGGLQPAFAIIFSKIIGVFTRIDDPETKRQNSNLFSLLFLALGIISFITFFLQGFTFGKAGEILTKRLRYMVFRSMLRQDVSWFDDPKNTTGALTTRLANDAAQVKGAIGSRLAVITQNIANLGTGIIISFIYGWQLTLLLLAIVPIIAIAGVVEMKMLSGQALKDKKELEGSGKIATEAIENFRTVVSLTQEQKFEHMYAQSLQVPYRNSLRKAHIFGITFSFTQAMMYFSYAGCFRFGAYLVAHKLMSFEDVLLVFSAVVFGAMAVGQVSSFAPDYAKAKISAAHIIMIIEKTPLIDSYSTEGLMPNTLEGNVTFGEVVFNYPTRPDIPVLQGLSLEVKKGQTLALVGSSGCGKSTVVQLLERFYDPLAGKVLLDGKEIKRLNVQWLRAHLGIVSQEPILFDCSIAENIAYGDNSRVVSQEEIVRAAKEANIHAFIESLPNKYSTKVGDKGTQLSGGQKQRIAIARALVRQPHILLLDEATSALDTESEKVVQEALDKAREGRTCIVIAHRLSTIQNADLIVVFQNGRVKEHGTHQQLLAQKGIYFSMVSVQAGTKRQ
quantity: pKi
Lab note — pKi values are minus log10 of concentrations in M.

Tell me reported pKi for O=C(c1cc(Cc2n[nH]c(=O)c3ccccc23)ccc1F)N1CCN(C(=O)C2CC2)CC1 , tested with P‐glycoprotein (P‐gp) (Homo sapiens).
4.13

---

assayOverview: Blood-to-plasma ratio and plasma unbound fraction
Format: in vitro ADME
recordedConditions: human, plasma
quantity: fraction unbound
# respond with the number and nothing more

Fill blank: measured fraction unbound of the molecule O=C(c1cc(Cc2n[nH]c(=O)c3ccccc23)ccc1F)N1CCN(C(=O)C2CC2)CC1 [Olaparib] is ____.
0.181
